Target: kinases (Homo sapiens, UniProt P00519, E255K)
Construct: purchased Eurofins/DiscoveRx; host or cells: E. coli BL21-derived host (T7 phage display) for most kinases; HEK-293 for the rest
Sequence (P00519 whole entry E255K): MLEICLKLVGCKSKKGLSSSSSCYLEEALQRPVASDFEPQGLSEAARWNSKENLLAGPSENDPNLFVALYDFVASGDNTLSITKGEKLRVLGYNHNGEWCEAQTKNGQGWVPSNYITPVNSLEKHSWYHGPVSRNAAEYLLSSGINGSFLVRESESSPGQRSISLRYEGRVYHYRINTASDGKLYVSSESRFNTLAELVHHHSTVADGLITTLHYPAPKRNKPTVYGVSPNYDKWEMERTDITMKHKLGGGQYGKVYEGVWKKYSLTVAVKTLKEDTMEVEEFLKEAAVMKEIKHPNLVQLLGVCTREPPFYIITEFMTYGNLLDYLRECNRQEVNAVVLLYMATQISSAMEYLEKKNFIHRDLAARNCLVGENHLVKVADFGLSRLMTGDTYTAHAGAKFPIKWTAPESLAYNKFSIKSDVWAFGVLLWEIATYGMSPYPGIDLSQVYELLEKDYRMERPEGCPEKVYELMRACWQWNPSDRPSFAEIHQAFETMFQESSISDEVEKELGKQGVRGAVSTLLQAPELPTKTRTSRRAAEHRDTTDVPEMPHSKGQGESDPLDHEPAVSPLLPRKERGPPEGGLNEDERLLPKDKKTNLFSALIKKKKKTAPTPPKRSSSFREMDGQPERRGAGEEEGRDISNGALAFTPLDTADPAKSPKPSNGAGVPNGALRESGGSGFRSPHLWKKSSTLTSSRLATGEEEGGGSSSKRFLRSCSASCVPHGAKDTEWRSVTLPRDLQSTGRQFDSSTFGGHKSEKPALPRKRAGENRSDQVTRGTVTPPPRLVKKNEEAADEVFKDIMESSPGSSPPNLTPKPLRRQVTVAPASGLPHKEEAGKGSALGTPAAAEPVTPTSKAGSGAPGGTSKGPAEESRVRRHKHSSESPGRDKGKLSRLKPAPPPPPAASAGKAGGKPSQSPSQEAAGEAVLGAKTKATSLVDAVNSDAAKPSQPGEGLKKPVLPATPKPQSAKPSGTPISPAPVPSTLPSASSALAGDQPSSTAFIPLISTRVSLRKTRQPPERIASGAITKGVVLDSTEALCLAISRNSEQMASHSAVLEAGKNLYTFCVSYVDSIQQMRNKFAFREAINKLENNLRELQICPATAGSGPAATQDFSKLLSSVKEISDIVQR
Experiment: KINOMEscan kinase binding assay (Eurofins/DiscoveRx), % Ctrl
Settings: 1 μM; ABL1(E255K)-phosphorylated
As shown below, each of these compounds has a reported % Ctrl, ABL1(E255K)-phosphorylated value.

structure-smiles-string | % Ctrl, ABL1(E255K)-phosphorylated (% Ctrl)
Cc1cc2c([nH]1)/C=C1\C(=O)Nc3cc(Cl)c(cc31)OCCO[C@@H](C(=O)NC1CNC1)CN(C)C2=O | 70
Cc1cc2c([nH]1)/C=C1\C(=O)Nc3ccc(cc31)CN(C)C(=O)COCCNC2=O | 42
Cc1cc2c([nH]1)/C=C1\C(=O)Nc3ccc(cc31)OCCOCCNC2=O | 89
Cc1cc2c([nH]1)/C=C1\C(=O)Nc3ccc(cc31)-c1cnn(C)c1CNCCN(C)C2=O | 0.05
Cc1cc2c([nH]1)/C=C1\C(=O)Nc3cc(Cl)c(cc31)OCCO[C@@H](C(=O)N(C)C)CN(C)C2=O | 64
Cc1cc2c([nH]1)/C=C1\C(=O)Nc3ccc(cc31)-c1ccnn1CCOCCNC2=O | 72
CNC(=O)[C@H]1CN(C)C(=O)c2cc(C)[nH]c2/C=C2\C(=O)Nc3cc(Cl)c(cc32)OCCO1 | 56
Cc1cc2c([nH]1)/C=C1\C(=O)Nc3ccc(cc31)-c1c(C)n[nH]c1CNCCN(C)C2=O | 0.1
Cc1cc2c([nH]1)/C=C1\C(=O)Nc3ccc(cc31)-c1c(noc1C)COCCN(C)C2=O | 25
Cc1cc2c([nH]1)/C=C1\C(=O)Nc3cnc(cc31)-c1cnn(C)c1COCCNC2=O | 92
Cc1cc2c([nH]1)/C=C1\C(=O)Nc3ccc(cc31)-c1ccnn1CCNCCNC2=O | 84
Cc1cc2c([nH]1)/C=C1\C(=O)Nc3ccc(cc31)OCCOCCN(C)C2=O | 14
Cc1cc2c([nH]1)/C=C1\C(=O)Nc3cc(Cl)c(cc31)OCCO[C@@H](C(=O)NC1CCNCC1)CN(C)C2=O | 50
Cc1cc2c([nH]1)/C=C1\C(=O)Nc3cnc(nc31)N(C)CCCOCCN(C)C2=O | 85
Cc1cc2c([nH]1)/C=C1\C(=O)Nc3cc(Cl)c(cc31)OCCO[C@@H](C(=O)N[C@@H]1CCNC1)CN(C)C2=O | 36
Cc1cc2c([nH]1)/C=C1\C(=O)Nc3cc(Cl)c(cc31)OCCOCCN(C)C2=O | 0
Cc1cc2c([nH]1)/C=C1\C(=O)Nc3ccc(cc31)-c1ccnn1CCOCCN(C)C2=O | 49

FYI, the data here is from patent US20230257396A1.
